molecular target: Phosphatidylinositol 4,5-bisphosphate 3-kinase catalytic subunit delta isoform (Homo sapiens); assay: Inhibition of p110 delta (unknown origin)
Sequence (O00329 whole entry, canonical isoform): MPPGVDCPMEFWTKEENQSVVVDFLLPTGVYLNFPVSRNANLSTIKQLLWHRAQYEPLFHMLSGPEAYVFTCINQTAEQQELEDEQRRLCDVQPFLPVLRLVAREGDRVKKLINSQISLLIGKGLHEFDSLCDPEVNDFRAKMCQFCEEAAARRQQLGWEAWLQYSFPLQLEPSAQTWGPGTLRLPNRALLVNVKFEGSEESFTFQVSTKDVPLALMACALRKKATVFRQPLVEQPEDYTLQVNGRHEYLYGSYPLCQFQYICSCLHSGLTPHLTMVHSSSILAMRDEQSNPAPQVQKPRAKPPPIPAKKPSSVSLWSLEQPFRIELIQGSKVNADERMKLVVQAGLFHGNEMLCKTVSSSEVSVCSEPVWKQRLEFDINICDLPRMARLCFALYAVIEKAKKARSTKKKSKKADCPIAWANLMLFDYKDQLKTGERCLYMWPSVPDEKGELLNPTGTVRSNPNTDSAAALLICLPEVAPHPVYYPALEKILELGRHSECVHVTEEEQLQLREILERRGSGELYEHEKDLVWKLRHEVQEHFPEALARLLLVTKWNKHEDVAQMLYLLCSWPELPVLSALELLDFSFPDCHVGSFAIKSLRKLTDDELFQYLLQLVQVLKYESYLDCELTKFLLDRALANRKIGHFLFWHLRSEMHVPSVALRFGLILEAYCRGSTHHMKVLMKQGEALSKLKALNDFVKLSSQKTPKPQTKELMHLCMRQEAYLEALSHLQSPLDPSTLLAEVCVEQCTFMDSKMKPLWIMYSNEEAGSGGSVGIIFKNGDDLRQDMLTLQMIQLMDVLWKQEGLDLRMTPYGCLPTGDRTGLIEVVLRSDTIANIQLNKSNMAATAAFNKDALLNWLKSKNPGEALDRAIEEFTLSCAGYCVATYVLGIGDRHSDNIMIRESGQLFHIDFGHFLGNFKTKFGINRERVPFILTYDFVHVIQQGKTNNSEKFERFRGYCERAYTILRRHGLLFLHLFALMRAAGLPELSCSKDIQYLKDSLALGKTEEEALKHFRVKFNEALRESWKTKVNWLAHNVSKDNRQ
pIC50: −log10 of the molar value.
Measured endpoint: pIC50

[
  {
    "Compound": "C=CCN(/C=C1/C(=O)O[C@H](COC)[C@@]2(C)C1=C(O)C(=O)C1=C2[C@H](OC(C)=O)C[C@]2(C)C(=O)CC[C@@H]12)CC=C [SONOLISIB]",
    "Numeric value": 8.52
  },
  {
    "Compound": "COc1ccc(Cl)c(Nc2nc3ccccc3nc2NS(=O)(=O)c2cccc(NC(=O)C(C)(C)N)c2)c1 [PILARALISIB]",
    "Numeric value": 7.44
  }
]

---

target: Phosphatidylinositol 4,5-bisphosphate 3-kinase catalytic subunit beta isoform (Homo sapiens, UniProt P42338); assay: Inhibition of p110 beta (unknown origin)
Sequence (P42338 whole entry, canonical isoform): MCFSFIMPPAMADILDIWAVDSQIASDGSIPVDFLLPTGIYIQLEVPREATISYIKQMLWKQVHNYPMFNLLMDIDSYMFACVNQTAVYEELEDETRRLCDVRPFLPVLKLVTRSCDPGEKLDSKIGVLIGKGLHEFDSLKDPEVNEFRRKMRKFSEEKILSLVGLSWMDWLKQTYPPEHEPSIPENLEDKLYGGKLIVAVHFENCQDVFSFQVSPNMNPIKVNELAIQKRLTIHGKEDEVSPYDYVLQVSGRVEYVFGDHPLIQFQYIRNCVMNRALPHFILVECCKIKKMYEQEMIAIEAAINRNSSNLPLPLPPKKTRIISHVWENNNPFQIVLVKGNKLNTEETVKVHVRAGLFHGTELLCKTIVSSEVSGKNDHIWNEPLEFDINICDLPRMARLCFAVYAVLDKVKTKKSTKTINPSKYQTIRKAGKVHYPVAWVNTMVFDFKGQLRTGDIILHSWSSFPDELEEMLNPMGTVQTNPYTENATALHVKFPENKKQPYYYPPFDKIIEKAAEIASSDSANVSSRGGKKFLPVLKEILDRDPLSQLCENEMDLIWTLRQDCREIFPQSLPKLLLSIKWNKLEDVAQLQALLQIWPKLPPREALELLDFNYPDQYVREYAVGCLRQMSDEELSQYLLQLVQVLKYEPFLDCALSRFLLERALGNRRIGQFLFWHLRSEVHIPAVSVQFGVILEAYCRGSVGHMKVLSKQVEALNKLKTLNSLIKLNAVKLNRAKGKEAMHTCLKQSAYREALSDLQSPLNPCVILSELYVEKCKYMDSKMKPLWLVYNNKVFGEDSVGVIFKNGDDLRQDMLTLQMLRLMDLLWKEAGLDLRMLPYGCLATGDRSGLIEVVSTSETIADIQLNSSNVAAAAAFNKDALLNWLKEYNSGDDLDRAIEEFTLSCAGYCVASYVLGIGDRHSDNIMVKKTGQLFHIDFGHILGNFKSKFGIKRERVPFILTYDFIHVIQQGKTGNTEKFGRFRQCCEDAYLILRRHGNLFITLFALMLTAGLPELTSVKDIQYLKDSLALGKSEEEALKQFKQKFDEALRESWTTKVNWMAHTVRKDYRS

[
  {
    "Query smiles": "COc1cc(Nc2nc3ccccc3nc2NS(=O)(=O)c2ccc(NC(=O)c3ccc(C)c(OC)c3)cc2)cc(OC)c1",
    "Value units": "nM",
    "Comparison sign": "=",
    "IC50": 113
  },
  {
    "Query smiles": "C=CCN(/C=C1/C(=O)O[C@H](COC)[C@@]2(C)C1=C(O)C(=O)C1=C2[C@H](OC(C)=O)C[C@]2(C)C(=O)CC[C@@H]12)CC=C",
    "Value units": "nM",
    "Comparison sign": ">",
    "IC50": 300
  }
]

---

molecular target: Phosphatidylinositol 4,5-bisphosphate 3-kinase catalytic subunit alpha isoform (Homo sapiens); assay: Inhibition of p110 alpha (unknown origin)
Sequence (P42336 whole entry, canonical isoform): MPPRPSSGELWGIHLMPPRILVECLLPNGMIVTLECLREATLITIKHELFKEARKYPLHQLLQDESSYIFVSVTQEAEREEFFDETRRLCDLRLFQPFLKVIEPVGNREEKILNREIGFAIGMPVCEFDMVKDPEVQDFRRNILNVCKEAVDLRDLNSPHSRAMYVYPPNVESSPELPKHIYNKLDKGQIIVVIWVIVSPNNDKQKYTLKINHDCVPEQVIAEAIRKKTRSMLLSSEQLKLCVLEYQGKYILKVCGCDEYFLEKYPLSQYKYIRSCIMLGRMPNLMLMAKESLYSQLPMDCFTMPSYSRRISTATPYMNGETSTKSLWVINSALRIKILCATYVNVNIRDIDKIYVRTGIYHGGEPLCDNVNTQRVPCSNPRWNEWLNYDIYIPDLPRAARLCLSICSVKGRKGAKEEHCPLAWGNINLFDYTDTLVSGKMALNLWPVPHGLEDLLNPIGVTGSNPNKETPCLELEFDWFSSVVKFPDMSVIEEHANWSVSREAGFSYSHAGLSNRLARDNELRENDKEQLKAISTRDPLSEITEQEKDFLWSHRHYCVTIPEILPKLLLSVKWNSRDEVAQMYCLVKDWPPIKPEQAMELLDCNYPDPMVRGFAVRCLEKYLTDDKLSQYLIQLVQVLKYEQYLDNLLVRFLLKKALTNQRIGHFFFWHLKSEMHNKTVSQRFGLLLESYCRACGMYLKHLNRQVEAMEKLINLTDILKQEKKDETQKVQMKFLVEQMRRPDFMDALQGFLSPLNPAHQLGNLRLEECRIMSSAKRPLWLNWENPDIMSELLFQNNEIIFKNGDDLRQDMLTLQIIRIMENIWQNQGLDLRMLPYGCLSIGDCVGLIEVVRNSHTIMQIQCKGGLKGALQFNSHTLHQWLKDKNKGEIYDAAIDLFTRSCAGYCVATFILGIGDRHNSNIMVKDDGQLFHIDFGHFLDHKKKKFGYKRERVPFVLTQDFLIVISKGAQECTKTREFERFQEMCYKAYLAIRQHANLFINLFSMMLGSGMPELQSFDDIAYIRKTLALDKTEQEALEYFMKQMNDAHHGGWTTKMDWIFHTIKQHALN

[
  {
    "Query smiles": "C=CCN(/C=C1/C(=O)O[C@H](COC)[C@@]2(C)C1=C(O)C(=O)C1=C2[C@H](OC(C)=O)C[C@]2(C)C(=O)CC[C@@H]12)CC=C",
    "IC50 (nM)": 6
  }
]

---

target: Phosphatidylinositol 4,5-bisphosphate 3-kinase catalytic subunit gamma isoform (Homo sapiens, UniProt P48736); test: Inhibition of p110 gamma (unknown origin)
Sequence (P48736 whole entry, canonical isoform): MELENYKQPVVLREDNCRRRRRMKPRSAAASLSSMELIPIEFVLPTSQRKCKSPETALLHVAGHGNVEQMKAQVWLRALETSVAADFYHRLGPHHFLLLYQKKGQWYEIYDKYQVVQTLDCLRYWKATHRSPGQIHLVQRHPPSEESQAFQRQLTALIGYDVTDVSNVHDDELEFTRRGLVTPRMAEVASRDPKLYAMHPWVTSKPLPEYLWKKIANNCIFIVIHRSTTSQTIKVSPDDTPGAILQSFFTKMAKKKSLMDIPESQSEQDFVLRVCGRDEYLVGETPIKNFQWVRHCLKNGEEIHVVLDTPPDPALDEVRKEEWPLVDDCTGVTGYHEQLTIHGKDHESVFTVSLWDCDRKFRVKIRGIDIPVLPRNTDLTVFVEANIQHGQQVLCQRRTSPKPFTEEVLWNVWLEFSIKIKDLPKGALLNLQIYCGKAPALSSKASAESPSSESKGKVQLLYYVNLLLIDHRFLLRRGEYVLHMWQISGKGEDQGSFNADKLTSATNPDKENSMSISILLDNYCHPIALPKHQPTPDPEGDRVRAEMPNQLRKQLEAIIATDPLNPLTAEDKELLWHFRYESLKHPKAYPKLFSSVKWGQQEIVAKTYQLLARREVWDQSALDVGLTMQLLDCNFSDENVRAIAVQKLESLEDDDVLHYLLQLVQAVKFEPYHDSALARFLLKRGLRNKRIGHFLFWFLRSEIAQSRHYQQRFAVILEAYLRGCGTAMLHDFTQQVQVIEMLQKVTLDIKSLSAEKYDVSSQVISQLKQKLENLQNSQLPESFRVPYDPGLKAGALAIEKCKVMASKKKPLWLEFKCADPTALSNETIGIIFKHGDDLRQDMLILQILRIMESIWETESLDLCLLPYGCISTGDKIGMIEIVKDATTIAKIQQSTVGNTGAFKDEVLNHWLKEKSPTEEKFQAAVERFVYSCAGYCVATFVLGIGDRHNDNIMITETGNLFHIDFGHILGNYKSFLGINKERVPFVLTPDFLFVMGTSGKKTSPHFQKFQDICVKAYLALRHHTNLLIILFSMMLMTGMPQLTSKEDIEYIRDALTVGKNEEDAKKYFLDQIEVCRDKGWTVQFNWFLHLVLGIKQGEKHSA

[
  {
    "Compound": "COc1ccc(Cl)c(Nc2nc3ccccc3nc2NS(=O)(=O)c2cccc(NC(=O)C(C)(C)N)c2)c1 [PILARALISIB]",
    "IC50 / nM": 23
  },
  {
    "Compound": "COc1ncc(-c2ccc3nccc(-c4ccnnc4)c3c2)cc1NS(=O)(=O)c1ccc(F)cc1F [OMIPALISIB]",
    "IC50 / nM": 1
  }
]

The reported numbers originate from ChEMBL document CHEMBL5653604.
